assay: Pharmacokinetic analysis in cannulated rat model; type: in vivo, Sprague Dawley rats; details: Sprague-Dawley, rat, plasma, iv, 5.21 mg/kg
value-kind: AUC(0-t) (ng·h/mL)
I only need the number, in ng·h/mL, no unit after it.

Query: Fill in: AUC(0-t) of "COc1cc2c(cc1O)CC[C@@H]1[C@@H]2CC[C@]2(C)[C@@H](O)CC[C@@H]12" is ___
Result: 321

---

experiment: Pharmacokinetic analysis in cannulated rat model; assay type: in vivo, Sprague Dawley rats; conditions: Sprague-Dawley, rat, plasma, iv, 5.21 mg/kg
value-kind: Cmax
Returns: string containing the number followed by the unit.

Query: Fill in: Cmax of "COc1cc2c(cc1O)CC[C@@H]1[C@@H]2CC[C@]2(C)[C@@H](O)CC[C@@H]12" is ___
Result: 1220 ng/mL
